# Tgt: Cholecystokinin receptor type A (Mus musculus, UniProt O08786)
# Sequence (O08786 whole entry, looked up): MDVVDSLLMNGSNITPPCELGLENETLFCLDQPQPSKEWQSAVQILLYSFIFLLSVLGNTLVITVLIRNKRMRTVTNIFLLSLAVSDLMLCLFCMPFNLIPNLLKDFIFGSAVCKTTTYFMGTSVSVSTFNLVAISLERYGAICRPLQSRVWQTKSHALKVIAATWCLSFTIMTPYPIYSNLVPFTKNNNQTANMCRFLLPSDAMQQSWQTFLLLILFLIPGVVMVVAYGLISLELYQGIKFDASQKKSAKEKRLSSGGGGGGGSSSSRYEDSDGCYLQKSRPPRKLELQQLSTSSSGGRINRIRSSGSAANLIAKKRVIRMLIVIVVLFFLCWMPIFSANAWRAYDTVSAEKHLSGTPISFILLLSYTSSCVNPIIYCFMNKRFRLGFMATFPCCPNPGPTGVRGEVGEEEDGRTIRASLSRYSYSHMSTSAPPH
# Procedure Details: Agonist activity against mouse CCK1 receptor
Entries annotated with measured pEC50
Note on units: pEC50 is unitless, being -log10 of a concentration expressed in mol/L.

Guide cases for pEC50, answers given:
{"Smi": "CCOc1cccc(-n2cc(C(=O)N3CCN(c4cc(C(=O)O)c5ccccc5c4)CC3)nc2-c2ccc(F)cc2)c1.O=C(O)C(F)(F)F", "Value Type": "pEC50", "Test Value": 8.82}
{"Smi": "CCOc1cccc(-n2cc(C(=O)N3CCN(c4cc(C(=O)[O-])c5ccccc5c4)CC3)nc2-c2ccc(C)cc2)c1.[Na+]", "Value Type": "pEC50", "Test Value": 9.11}
{"Smi": "CCOc1cccc(-n2cc(C(=O)N3CCN(c4cc(C(=O)O)c5ccccc5c4)CC3)nc2-c2ccc(C)cc2)c1.O=C(O)C(F)(F)F", "Value Type": "pEC50", "Test Value": 8.89}
{"Smi": "CCOc1cccc(-n2cc(C(=O)N3CCN(c4cnc5ccccc5c4)CC3)nc2-c2ccc(C)cc2)c1", "Value Type": "pEC50", "Test Value": 8.68}
{"Smi": "CCOc1cccc(-n2cc(C(=O)N3CCN(c4cc(C(=O)O)c5ccccc5c4)CC3)nc2-c2ccc(C)cc2F)c1.O=C(O)C(F)(F)F", "Value Type": "pEC50", "Test Value": 9.52}

Now consider the entry below.
## Task Supply recorded pEC50 for O=C(O)C(F)(F)F.O=C(O)c1cc(N2CCN(C(=O)c3cn(-c4ccc5c(c4)OCCO5)c(-c4ccc(F)cc4)n3)CC2)cc2ccccc12 here.
## Result 9.85

====

# Tested on: Mus musculus
# Procedure Details: Reduction in overnight food intake in lean mouse at 0.3 mg/kg, po
# Assay type: functional
# Parameters: scale not given: the % may be the effect or the level left
Parameter Activity: see the listing below.
Reply with the number and its unit after it.

Would you please look over these solved cases?
{"Smi": "CCOc1cccc(-n2cc(C(=O)N3CCN(c4cc(C(=O)O)c5ccccc5c4)CC3)nc2-c2ccc(C)cc2F)c1.O=C(O)C(F)(F)F", "Test Value": "13%"}
{"Smi": "O=C(O)C(F)(F)F.O=C(O)c1cc(N2CCN(C(=O)c3cn(-c4ccc5c(c4)OCCO5)c(-c4ccc(F)cc4)n3)CC2)cc2ccccc12", "Test Value": "16%"}
{"Smi": "CCOc1cccc(-n2cc(C(=O)N3CCN(c4cc(C(=O)O)c5ccccc5c4)CC3)nc2-c2ccc(C)cc2)c1.O=C(O)C(F)(F)F", "Test Value": "18%"}

## Task Tell us which Activity value is on record for CCOc1cccc(-n2cc(C(=O)N3CCN(c4cc(C(=O)[O-])c5ccccc5c4)CC3)nc2-c2ccc(C)cc2)c1.[Na+]
## Result 29%

====

# clearance values compiled below
# Procedure Details: Clearance in mouse at 1.0 mg/kg, iv and 10 mg/kg, po
# Format: ADME, organism-based
# Assay Conditions: in vivo
A bare number is not enough; add the unit after it.

{"Smi": "CCOc1cccc(-n2cc(C(=O)N3CCN(c4cc(C(=O)O)c5ccccc5c4)CC3)nc2-c2ccc(C)cc2F)c1", "clearance": "10.4 mL/min/kg"}

## Task Supply measured clearance of CCOc1cccc(-n2cc(C(=O)N3CCN(c4cc(C(=O)O)c5ccccc5c4)CC3)nc2-c2ccc(C)cc2)c1 in your reply.
## Result 5.3 mL/min/kg

## Task Please report clearance for the following compound: CCOc1cccc(-n2cc(C(=O)N3CCN(c4cc(C(=O)O)c5ccccc5c4)CC3)nc2-c2ccc(F)cc2)c1
## Result 6.4 mL/min/kg

## Task Supply clearance value. Item: CCOc1cccc(-n2cc(C(=O)N3CCN(c4cc(C(=O)[O-])c5ccccc5c4)CC3)nc2-c2ccc(C)cc2)c1.[Na+]
## Result 3.1 mL/min/kg

Data provenance: ChEMBL document CHEMBL1155836
